experiment: Example 1: pharmacokinetics of Compound I, single (SD) and multiple (MD, q8h 7 days) ascending doses, 3-hour IV infusion, healthy adult subjects; type: in vivo, human; details: human, plasma, intravenous, 250 mg, 250 mg multiple dose
MEASURED_ENDPOINT: Cmax (ng/mL)
Enter your answer as a number in ng/mL; do not include the unit.

Lookup: Let me know recorded Cmax for O=C(O)C[C@@H]1CC[C@H](NC(=O)Cc2cccs2)B(O)O1 , thanks.
Found: 4810

----------
Assay: Example 1: pharmacokinetics of Compound I, single (SD) and multiple (MD, q8h 7 days) ascending doses, 3-hour IV infusion, healthy adult subjects
Type: in vivo, human
Settings: human, urine, intravenous, 1250 mg, 1250 mg single dose; read-out: Urinary Recovery
Experimental: 56 healthy subjects were enrolled into one of 7 cohorts of 8 subjects each in the single ascending dose phase (250 mg, 500 mg, 750 mg, 1000 mg, 1250 mg, 1500 mg and 2000 mg). Thirty-two additional subjects were then enrolled into one of 4 cohorts in the multiple-dose phase (250 mg, 1000 mg, 1500 mg, and 2000 mg, given q8 h for 7 days). […] All infusions were administered over 3 hours. […]
MEASURED_ENDPOINT: dose excreted (%)
# value in %; strip the unit string

Lookup: Return dose excreted (reported value) for this molecule: O=C(O)C[C@@H]1CC[C@H](NC(=O)Cc2cccs2)B(O)O1
Found: 86.9
